Biological target: Androgen Receptor (AR) (Homo sapiens, UniProt P10275, T878A)
Construct: cell based immuno-fluorescence assay using the LNCaP prostate epithelial cell line; endogenous in cells; host or cells: LNCaP clone FGC (ATCC CRL-1740)
Sequence (P10275 1-920 T878A): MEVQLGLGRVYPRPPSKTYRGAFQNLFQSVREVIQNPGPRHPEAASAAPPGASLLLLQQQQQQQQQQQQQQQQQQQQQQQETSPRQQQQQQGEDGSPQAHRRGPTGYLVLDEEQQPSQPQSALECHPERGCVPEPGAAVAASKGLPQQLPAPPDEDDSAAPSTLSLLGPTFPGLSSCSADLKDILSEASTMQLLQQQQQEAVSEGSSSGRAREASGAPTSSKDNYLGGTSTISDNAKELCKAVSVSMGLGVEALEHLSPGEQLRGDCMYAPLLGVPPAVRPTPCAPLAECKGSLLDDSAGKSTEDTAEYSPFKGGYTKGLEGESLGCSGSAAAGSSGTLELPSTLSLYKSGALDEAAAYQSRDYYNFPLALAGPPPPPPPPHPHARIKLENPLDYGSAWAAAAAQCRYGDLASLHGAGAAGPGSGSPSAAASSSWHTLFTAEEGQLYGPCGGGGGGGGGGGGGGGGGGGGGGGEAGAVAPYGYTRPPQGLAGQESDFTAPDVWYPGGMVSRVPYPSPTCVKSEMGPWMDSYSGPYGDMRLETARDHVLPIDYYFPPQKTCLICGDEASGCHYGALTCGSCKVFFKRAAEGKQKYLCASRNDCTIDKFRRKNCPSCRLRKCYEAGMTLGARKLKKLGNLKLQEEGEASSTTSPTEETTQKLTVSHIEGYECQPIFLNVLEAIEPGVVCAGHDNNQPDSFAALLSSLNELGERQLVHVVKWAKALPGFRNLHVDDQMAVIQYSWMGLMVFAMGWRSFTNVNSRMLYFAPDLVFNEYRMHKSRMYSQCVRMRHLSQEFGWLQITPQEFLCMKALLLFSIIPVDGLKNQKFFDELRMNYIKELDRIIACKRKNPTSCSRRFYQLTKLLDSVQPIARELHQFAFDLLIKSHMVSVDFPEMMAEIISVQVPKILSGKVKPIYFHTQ
Assay: LNCaP Androgen Receptor Down-regulation Cell Assay (immunofluorescence end point)
Type: cell-based
Settings: LNCaP prostate carcinoma cells, compound incubation 20-22 hours, 50% reduction of the AR signal; read-out: Androgen Receptor Down-regulation Assay (a) IC50/μM
Item-by-item account of DC50
Form entry: value (µM) — number only.

smilesInput	DC50 [µM]
FC(F)(F)c1nnc2ccc(N3CC[C@H](Oc4ccccn4)C3)nn12	4.8
COc1ccc(OC)c(S(=O)(=O)N2CCN(c3ccc4nnc(C(F)(F)F)n4n3)CC2)c1	3.7
C[C@H]1CN(c2ccc3nnc(C(F)(F)F)n3n2)CCN1Cc1ccc(F)c(C#N)c1	2.5

Item: "CN1CCN(CCNC(=O)c2cccc(OC3CCN(c4ccc5nnc(C(F)(F)F)n5n4)CC3)c2)CC1" | System: Androgen Receptor (AR) (Homo sapiens, UniProt P10275, T878A) | DC50: 4.2

Item: "FC(F)(F)c1nnc2ccc(N3CCN(CCc4ccccc4Cl)CC3)nn12" | System: Androgen Receptor (AR) (Homo sapiens, UniProt P10275, T878A) | DC50: 3.6

Item: "FC(F)(F)c1nnc2ccc(N3CCN(Cc4cccc5nccnc45)CC3)nn12" | System: Androgen Receptor (AR) (Homo sapiens, UniProt P10275, T878A) | DC50: 6.2

Item: "FC(F)(F)c1ccc(O[C@H]2CCN(c3ccc4nnc(C(F)(F)F)n4n3)C2)cc1" | System: Androgen Receptor (AR) (Homo sapiens, UniProt P10275, T878A) | DC50: 9.6

Item: "O=C(NCCN1CCCC1)c1cccc(OC2CCN(c3ccc4nnc(C(F)(F)F)n4n3)CC2)c1" | System: Androgen Receptor (AR) (Homo sapiens, UniProt P10275, T878A) | DC50: 4.2

Data origin: patent US8003649B2
